Tested on: Plasmodium berghei
method-description: Screen against P. berghei liver stage (PbLuc), transformed with Luciferase, at 10uM
Type: functional, HepG2
measurement-setup: tested at 10 uM
About 8,600 (12%) of roughly 69,000 compounds showed an effect of 50% or more. The entries come from a sample that favours strong results as a whole.
Here the recorded INHIBITION is given for each entry.
Value expressed in %; do not type the unit.

Check out these entries, answers already filled in.
CCN(CC)C(=O)CN1CCC(c2nc(C)c3c(n2)N(C)CCC3)CC1 = 8.12
CN(C)CCOCC1CN(Cc2ccc(F)cc2)Cc2nnn(C)c21 (stereo unspecified) = 33.2
Cn1nccc1C(=O)N1CCOC(Cc2ccc(Cl)cc2)C1 (stereo unspecified) = 0.301
CC(C)C(=O)NCCCNC(=O)Nc1cc(-c2ccccc2)ns1 = -89.2
Cc1ccnc(C2CN(c3ccnc(C)n3)C2)n1 = 28.6
Cc1ccc(CN2C[C@@H]3CCCO[C@@H]3[C@H](N(C)Cc3ccco3)C2)o1 = 18.5
c1cc(C2CCN(c3cncnc3)CC2)ccn1 = 39.6
Cc1cc(C)n(CC2CN(CC(=O)NC3CCCCC3)CCO2)n1 (stereo unspecified) = 8.64

Problem: Give the measured INHIBITION of Fc1ccc(CN2CCOC[C@H](Oc3cccnc3)C2)cc1 .
Result: 38.1

Problem: Give the measured INHIBITION of COc1ccccc1OC1CN(C(=O)CN(C)Cc2ccncc2)C1 .
Result: -2.04

Problem: What measured INHIBITION goes with Cc1cc(C(=O)N2CCCC3(C=Cc4ccccc4O3)CC2)cc(=O)[nH]1 (stereo unspecified) ?
Result: -155

Problem: Endpoint output: INHIBITION of CN1CCC(N[C@@H]2CO[C@H](CNC(=O)Nc3ccccc3)[C@H]2O)CC1 . Value?
Result: 60.1

Problem: Give the measured INHIBITION of CCc1ccccc1OC1CN(C(=O)CN(C)Cc2ccncc2)C1 .
Result: 58.1
